B1: library; a variant is named by its letters at N, in order (parent)
chain: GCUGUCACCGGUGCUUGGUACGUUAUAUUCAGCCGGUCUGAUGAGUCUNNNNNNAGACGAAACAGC

- Variants of: B1
- protocol_text: normalized RNA/DNA level without ligand (relative to sTRSVctl = 100) (log10 (% of sTRSVctl)); HEK293T overexpressing SLC46A1; higher = less ribozyme self-cleavage, higher mRNA level
- setup_conditions: without (6R,S)-folinic acid; ligand present: no
Listed variants paired with reported normalized RNA/DNA level without ligand (log10)
metric: normalized RNA/DNA level without ligand (log10)

mut: CUAUCG
test_result: 2.04

mut: GGAGAC
test_result: 2

mut: ACCGCU
test_result: 2.07

mut: UCACCU
test_result: 2.05

mut: CAACCC
test_result: 2.07

mut: AUUCGU
test_result: 1.99

mut: AAAAGG
test_result: 1.88

mut: AUAGGG
test_result: 1.6

mut: CCUCCU
test_result: 2.06

mut: GUUCAG
test_result: 1.96

mut: UGCAAA
test_result: 1.96

mut: CCCAGU
test_result: 2.05

mut: CUUCAA
test_result: 2.02

mut: UGCGUC
test_result: 2.09

mut: GAGUGC
test_result: 1.94

mut: CGAUUA
test_result: 1.96

mut: CCAUCC
test_result: 2.09

mut: CCAAAU
test_result: 1.96

mut: CACCCC
test_result: 2.03

mut: GCCCAU
test_result: 2.01

mut: AAUCCG
test_result: 1.97

mut: ACAGUG
test_result: 1.73

mut: UUAAAG
test_result: 1.82

mut: GCGGUA
test_result: 1.98

mut: ACCCUA
test_result: 2.02

mut: UUGCGA
test_result: 1.97

mut: CUUAGA
test_result: 2.03

mut: CCAGAA
test_result: 1.98

mut: UCCCCG
test_result: 2

mut: GGUAAA
test_result: 1.98

mut: AGUCGC
test_result: 2.01

mut: AUUCCG
test_result: 2

mut: GUCACG
test_result: 2.02

mut: UUCAAU
test_result: 2

mut: GCACGG
test_result: 2

mut: UUGUAA
test_result: 1.94

mut: CUGUGU
test_result: 2

mut: GCUUUA
test_result: 1.99

mut: UUCCCU
test_result: 2.06

mut: CGCUGC
test_result: 2.09

mut: AUCCUA
test_result: 1.99

mut: CCAUAA
test_result: 1.98

mut: UAUCUU
test_result: 2.01

mut: UAUUAG
test_result: 1.78

mut: UCAGUG
test_result: 1.78

mut: CCUGAG
test_result: 1.93

Taken from the supplement of paper PMC6757056.
